Each recorded value in this set is attributed to patent US20070244048A1.

assay-system: T1, rat NMUR1-ATG (rat, UniProt Q9JJI5 1-425)
T1 sequence (looked up): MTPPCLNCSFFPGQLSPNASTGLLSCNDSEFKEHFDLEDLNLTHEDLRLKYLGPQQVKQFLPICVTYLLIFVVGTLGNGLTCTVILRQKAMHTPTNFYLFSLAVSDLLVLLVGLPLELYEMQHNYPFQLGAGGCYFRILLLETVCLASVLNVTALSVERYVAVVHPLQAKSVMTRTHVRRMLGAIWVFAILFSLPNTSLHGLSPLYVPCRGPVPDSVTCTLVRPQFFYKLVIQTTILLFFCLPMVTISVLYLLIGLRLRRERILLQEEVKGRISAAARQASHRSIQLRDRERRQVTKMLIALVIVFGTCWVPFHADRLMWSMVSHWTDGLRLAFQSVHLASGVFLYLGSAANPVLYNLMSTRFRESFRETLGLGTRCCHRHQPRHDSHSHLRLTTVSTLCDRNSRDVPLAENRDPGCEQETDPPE
assay-comment: cell-based or functional assay
Starred links: 1 amine or outer side, 2 acyl side, 3 side chain; linkers in the order of their positions; H or OH if unused. Non-standard residues stand in square brackets, D forms with d. No end group written: not given here. *: point of attachment. Ttds = 1-amino-4,7,10-trioxa-13-tridecanamine succinimic acid spacer, O=C(CCC(=O)[*:2])NCCCOCCOCCOCCCN[*:1]; Succinimide(1-Et,3-yl) = CCN1C(=O)CC(*)C1=O
measured-quantity: EC50 (FLIPR) (nM)
Hi! Could you send only the number? It should be in nM, unit omitted.

Consider the worked cases shown below.
binder	measured-quantity	value-measured
Ac-C(PEG 20 kDa)C(PEG 20 kDa)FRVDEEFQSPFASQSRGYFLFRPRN-NH2 [NMU23]	EC50 (FLIPR)	127
Ac-C(Succinimide(1-Et,3-yl))[Ttds]FLFRPRN-NH2 (SMILES CCN1C(=O)CC(SC[C@H](NC(C)=O)C(=O)NCCCOCCOCCOCCCNC(=O)CCC(=O)N[C@@H](Cc2ccccc2)C(=O)N[C@@H](CC(C)C)C(=O)N[C@@H](Cc2ccccc2)C(=O)N[C@@H](CCCNC(=N)N)C(=O)N2CCC[C@H]2C(=O)N[C@@H](CCCNC(=N)N)C(=O)N[C@@H](CC(N)=O)C(N)=O)C1=O) [NMU15]	EC50 (FLIPR)	4.2
FRVDEEFQSPFASQSRPYFLFRPRN-NH2 [NMU4]	EC50 (FLIPR)	3.8
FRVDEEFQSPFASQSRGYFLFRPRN-NH2 (not fully specified (N-terminus)) [NMU1]	EC50 (FLIPR)	718

Consider the additional binder presented here.
Task: Any idea what EC50 (FLIPR) was measured for Ac-C(PEG 20 kDa)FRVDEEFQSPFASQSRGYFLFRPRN-NH2 [NMU21] ?
Output: 19.5
